- Assay: phase I study: plasma pharmacokinetics
- Format: in vivo, patients
- Experimental setup: human, plasma, oral, 40 mg, ECT 40 mg BID, 7-day schedule, Day 7, N 8; read-out: Geometric mean AUC0–tlast (CV, %)
Readout name: AUC(0-t) (µM·h)
# number only, unit µM·h dropped from output

`COc1cc(Nc2ncc3c(n2)-c2ccc(Cl)cc2C(c2c(F)cccc2OC)=NC3)ccc1C(=O)O` yielded AUC(0-t) of 18.6

###

- Assay: phase I study: plasma pharmacokinetics
- Type: in vivo, patients
- Experimental setup: human, plasma, oral, 30 mg, ECT 30 mg BID, 7-day schedule, Day 7, n=1; read-out: Mean t1/2 (sd) (converted)
Readout name: half-life (h)
Numeric only. Scale: h

Reported half-life for `COc1cc(Nc2ncc3c(n2)-c2ccc(Cl)cc2C(c2c(F)cccc2OC)=NC3)ccc1C(=O)O` was 13.3
